Molecular target: SMARCA2 (Homo sapiens, UniProt P51531)
Construct: endogenous in cells
Sequence (P51531 whole entry, species assumed): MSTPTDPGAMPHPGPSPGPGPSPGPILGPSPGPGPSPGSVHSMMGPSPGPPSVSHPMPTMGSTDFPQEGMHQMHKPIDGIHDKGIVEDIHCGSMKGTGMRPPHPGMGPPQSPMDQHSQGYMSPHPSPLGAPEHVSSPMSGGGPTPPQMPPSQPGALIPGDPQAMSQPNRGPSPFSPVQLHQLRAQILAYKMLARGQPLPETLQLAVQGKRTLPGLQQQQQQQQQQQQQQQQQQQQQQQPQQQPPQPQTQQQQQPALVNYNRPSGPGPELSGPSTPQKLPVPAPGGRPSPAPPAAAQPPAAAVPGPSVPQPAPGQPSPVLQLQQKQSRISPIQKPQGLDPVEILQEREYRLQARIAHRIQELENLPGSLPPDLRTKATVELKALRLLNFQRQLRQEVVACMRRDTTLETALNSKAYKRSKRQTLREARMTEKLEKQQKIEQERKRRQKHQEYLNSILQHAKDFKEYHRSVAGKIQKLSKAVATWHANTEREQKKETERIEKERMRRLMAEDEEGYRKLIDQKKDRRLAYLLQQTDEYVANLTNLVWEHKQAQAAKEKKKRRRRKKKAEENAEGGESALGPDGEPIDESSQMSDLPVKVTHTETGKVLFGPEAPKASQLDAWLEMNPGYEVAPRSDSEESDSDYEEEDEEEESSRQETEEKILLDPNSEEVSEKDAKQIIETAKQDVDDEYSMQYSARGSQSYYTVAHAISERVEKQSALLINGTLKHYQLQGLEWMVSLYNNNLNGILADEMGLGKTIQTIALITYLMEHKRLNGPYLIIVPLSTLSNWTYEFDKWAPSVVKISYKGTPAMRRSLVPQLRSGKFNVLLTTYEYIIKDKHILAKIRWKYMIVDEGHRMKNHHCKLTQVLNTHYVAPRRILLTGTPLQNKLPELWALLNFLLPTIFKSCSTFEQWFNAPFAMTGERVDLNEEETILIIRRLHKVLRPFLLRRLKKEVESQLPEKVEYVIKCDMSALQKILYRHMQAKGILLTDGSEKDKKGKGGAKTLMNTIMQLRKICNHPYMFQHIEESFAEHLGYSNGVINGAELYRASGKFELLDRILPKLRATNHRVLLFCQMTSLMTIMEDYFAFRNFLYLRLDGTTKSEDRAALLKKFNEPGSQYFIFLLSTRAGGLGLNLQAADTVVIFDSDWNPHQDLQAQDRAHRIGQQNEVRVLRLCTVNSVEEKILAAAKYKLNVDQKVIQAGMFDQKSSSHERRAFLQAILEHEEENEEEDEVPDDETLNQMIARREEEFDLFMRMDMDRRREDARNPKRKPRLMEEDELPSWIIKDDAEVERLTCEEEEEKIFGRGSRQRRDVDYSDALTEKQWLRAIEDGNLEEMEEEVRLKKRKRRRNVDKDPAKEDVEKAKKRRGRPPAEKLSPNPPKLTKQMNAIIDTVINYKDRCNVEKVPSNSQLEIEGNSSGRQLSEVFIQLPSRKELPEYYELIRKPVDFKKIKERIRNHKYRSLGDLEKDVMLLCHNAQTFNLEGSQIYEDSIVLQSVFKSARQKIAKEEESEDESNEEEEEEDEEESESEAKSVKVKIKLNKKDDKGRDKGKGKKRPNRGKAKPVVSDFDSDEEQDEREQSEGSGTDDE
Assay: SMARCA2 Cellular Degradation Assay (Western blot analysis on Jess platform)
Assay type: cell-based
Conditions: ratio DC50 SMARCA4 / DC50 SMARCA2
Listed compounds paired with reported Fold Selectivity SMARCA4/2
REPORTED_ENDPOINT: Fold Selectivity SMARCA4/2

{"columns": ["COMPOUND", "REPORTED_ENDPOINT", "ENDPOINT_VALUE"],
 "data": [
  ["O=C1CC[C@H](c2ccc(N3CCC(CN4CCCC4C4CCCN(C(=O)C5(c6ccccc6)CCN(c6cnnc(-c7ccccc7O)c6)CC5)C4)CC3)cc2)C(=O)N1 (stereo partly drawn) [Example 37]", "Fold Selectivity SMARCA4/2", 1],
  ["O=C1CC[C@H](c2ccc(N3CCC(CN4CCC(NC(=O)C5(c6ccccn6)CCN(c6cnnc(-c7ccccc7O)c6)CC5)CC45CCC5)CC3)cc2)C(=O)N1 (stereo partly drawn) [Example 182]", "Fold Selectivity SMARCA4/2", 23],
  ["CN(C(=O)C1(OC2CC2)CCN(c2cnnc(-c3ccccc3O)c2)CC1)C1CCN(CCC2CCN(c3ccc([C@H]4CCC(=O)NC4=O)c(F)c3)CC2)CC1 (racemic) [Example 70]", "Fold Selectivity SMARCA4/2", 1163],
  ["CC1(C(=O)N2CC3(CN(CC4CCN(c5ccc([C@H]6CCC(=O)NC6=O)cc5)CC4)C3)C2)CCN(c2cnnc(-c3ccccc3O)c2)CC1 [Example 23]", "Fold Selectivity SMARCA4/2", 127.44],
  ["O=C1CCC(c2ccc(N3CCC(CCN4CC5(C4)CN(C(=O)C4(c6ccccc6F)CCN(c6cnnc(-c7ccccc7O)c6)CC4)C5)CC3)cc2)C(=O)N1 (racemic) [Example 132]", "Fold Selectivity SMARCA4/2", 984],
  ["CC(C)c1cc(C2(C(=O)N(C)C3CCN(C4COC5(CCN(c6ccc([C@H]7CCC(=O)NC7=O)cc6)CC5)C4)CC3)CCN(c3cnnc(-c4ccccc4O)c3)CC2)no1 (mixture of isomers) [Example 59]", "Fold Selectivity SMARCA4/2", 842],
  ["O=C1CCC(c2ccc(N3CCC(CN4CC5(C4)CN(C(=O)C4(Cc6ccccc6)CCN(c6cnnc(-c7ccccc7O)c6)CC4)C5)CC3)cc2)C(=O)N1 (racemic) [Example 26]", "Fold Selectivity SMARCA4/2", 1],
  ["CN(CC1(c2ccccc2)CCN(c2cnnc(-c3ccccc3O)c2)CC1)C1CCN(C(=O)C2CCN(c3ccc(C4CCC(=O)NC4=O)cc3)CC2)CC1 (racemic) [Example 142]", "Fold Selectivity SMARCA4/2", 3],
  ["O=C1CC[C@H](c2ccc(N3CCC(CN4CCC(NC(=O)C5(C6CCOCC6)CCN(c6cnnc(-c7ccccc7O)c6)CC5)CC45CCC5)CC3)cc2)C(=O)N1 (stereo partly drawn) [Example 161]", "Fold Selectivity SMARCA4/2", 313],
  ["O=C1CC[C@H](c2ccc(N3CCC(CNC4CC5CCCC(C4)C5NC(=O)C4(c5ccccc5)CCN(c5cnnc(-c6ccccc6O)c5)CC4)CC3)cc2)C(=O)N1 (stereo partly drawn) [Example 49]", "Fold Selectivity SMARCA4/2", 6.52],
  ["O=C1CC[C@H](c2ccc(N3CCC(CN4CC(F)(F)C5(C4)CN(C(=O)C4(c6ccccc6)CCN(c6cnnc(-c7ccccc7O)c6)CC4)C5)CC3)cc2)C(=O)N1 [Example 52]", "Fold Selectivity SMARCA4/2", 1],
  ["O=C1CC[C@H](c2ccc(N3CCC(CN[C@H]4CC[C@H](NC(=O)C5(c6ccccc6)CCN(c6cnnc(-c7ccccc7O)c6)CC5)CC4)CC3)cc2)C(=O)N1 (racemic) [Example 175]", "Fold Selectivity SMARCA4/2", 335],
  ["COC1(C(=O)NCC2(c3ccccc3)CCN(c3cnnc(-c4ccccc4O)c3)CC2)CCN(CCC2CCN(c3ccc([C@H]4CCC(=O)NC4=O)cc3)CC2)CC1 (racemic) [Example 83]", "Fold Selectivity SMARCA4/2", 9],
  ["O=C1CCC(c2c(F)cc(N3CCC(CN4CCC5(CC4)CN(C(=O)C4(c6ccccc6)CCN(c6cnnc(-c7ccccc7O)c6)CC4)C5)CC3)cc2F)C(=O)N1 (racemic) [Example 193]", "Fold Selectivity SMARCA4/2", 11],
  ["CN(C(=O)C1(c2ccnn2C)CCN(c2cnnc(-c3ccccc3O)c2)CC1)C1CCN(CCC2CCN(c3cccc4c3n(C)c(=O)n4C3CCC(=O)NC3=O)CC2)CC1 (racemic) [Example 62]", "Fold Selectivity SMARCA4/2", 602],
  ["O=C1CCC(c2ccc(N3CCN(C(=O)CCCN4CCN(C(=O)C5(c6ccccc6)CCN(c6cnnc(-c7ccccc7O)c6)CC5)CC4)CC3)cc2)C(=O)N1 (racemic) [Example 22]", "Fold Selectivity SMARCA4/2", 1],
  ["Cn1c(=O)n([C@H]2CCC(=O)NC2=O)c2cccc(N3CCC(C(=O)N4C[C@@H]5[C@H](C4)[C@H]5C(=O)NCC4(c5ccccc5)CCN(c5cnnc(-c6ccccc6O)c5)CC4)CC3)c21 (racemic) [Example 72]", "Fold Selectivity SMARCA4/2", 42],
  ["O=C1CCC(c2ccc(N3CCC(CN4CC5(C4)CN(C(=O)C4(c6ccccc6)CCN(c6cnnc(-c7ccccc7O)c6)CC4)C5)CC3)c(F)c2F)C(=O)N1 (racemic) [Example 138]", "Fold Selectivity SMARCA4/2", 9],
  ["Cc1ccccc1OC1(C(=O)N(C)C2CCN(C(=O)CN3CCC(c4ccc([C@@H]5CCC(=O)NC5=O)cc4)CC3)CC2)CCN(c2cnnc(-c3ccccc3O)c2)CC1 (racemic) [Example 116]", "Fold Selectivity SMARCA4/2", 7],
  ["O=C1CC[C@H](c2ccc(N3CCC(CN4CCCC4C4CCN(C(=O)C5(c6ccccc6)CCN(c6cnnc(-c7ccccc7O)c6)CC5)CC4)CC3)cc2)C(=O)N1 (stereo partly drawn) [Example 40]", "Fold Selectivity SMARCA4/2", 31.55],
  ["COC1(C(=O)N(C)C2CCN(CCC3CCN(c4ccc([C@H]5CCC(=O)NC5=O)cc4)CC3)CC2)CCN(c2cnnc(-c3ccccc3O)c2)CC1 [Example 196]", "Fold Selectivity SMARCA4/2", 714]
]}
